tested on: Tyrosine-protein kinase ABL1 (Homo sapiens), P00519 [M351T]; details: at 0.1 µM
READOUT TYPE: inhibition
Answer format reminder: number followed by unit.

Before answering, review these 10 worked examples.
[[record]]
given_smiles = "C#Cc1cccc(Nc2ncnc3ccc(OCCCCNCCS(C)(=O)=O)cc23)c1"
measurement_target = "Tyrosine-protein kinase ABL1 (Homo sapiens), P00519 [M351T]"
readout_type = "inhibition"
result = "4.14%"

[[record]]
given_smiles = "CCS(=O)(=O)c1ccc(OC)c(Nc2ncc(-c3cccc(-c4ccccc4F)c3)o2)c1"
measurement_target = "Tyrosine-protein kinase ABL1 (Homo sapiens), P00519 [M351T]"
readout_type = "inhibition"
result = "44.6%"

[[record]]
given_smiles = "O=C1NC(=O)C(c2cccc(Cl)c2)=C1Nc1ccc(Cl)c(C(=O)O)c1"
measurement_target = "Tyrosine-protein kinase ABL1 (Homo sapiens), P00519 [M351T]"
readout_type = "inhibition"
result = "2.29%"

[[record]]
given_smiles = "NS(=O)(=O)c1ccc(N/N=C2\\C(=O)Nc3ccc(-c4cnco4)cc32)cc1"
measurement_target = "Tyrosine-protein kinase ABL1 (Homo sapiens), P00519 [M351T]"
readout_type = "inhibition"
result = "0.98%"

[[record]]
given_smiles = "NC(=O)c1ccc(Oc2nccc(-c3c(-c4ccc(F)cc4)ncn3C3CCNCC3)n2)cc1"
measurement_target = "Tyrosine-protein kinase ABL1 (Homo sapiens), P00519 [M351T]"
readout_type = "inhibition"
result = "-1.3%"

[[record]]
given_smiles = "COc1ccc(C2=C(N3CCc4ccccc43)C(=O)NC2=O)cc1"
measurement_target = "Tyrosine-protein kinase ABL1 (Homo sapiens), P00519 [M351T]"
readout_type = "inhibition"
result = "-0.47%"

[[record]]
given_smiles = "CCc1nccc2c1nc(-c1nonc1N)n2CC"
measurement_target = "Tyrosine-protein kinase ABL1 (Homo sapiens), P00519 [M351T]"
readout_type = "inhibition"
result = "-0.68%"

[[record]]
given_smiles = "N#Cc1ccc(Oc2nccc(-c3c(-c4ccc(F)cc4)ncn3C3CCNCC3)n2)cc1"
measurement_target = "Tyrosine-protein kinase ABL1 (Homo sapiens), P00519 [M351T]"
readout_type = "inhibition"
result = "2.13%"

[[record]]
given_smiles = "O=C1Nc2ccc(I)cc2C1=Cc1cc(Br)c(O)c(Br)c1"
measurement_target = "Tyrosine-protein kinase ABL1 (Homo sapiens), P00519 [M351T]"
readout_type = "inhibition"
result = "1%"

[[record]]
given_smiles = "c1ccc(Oc2ccc(Nc3ncc(-c4ccccc4)o3)cc2)cc1"
measurement_target = "Tyrosine-protein kinase ABL1 (Homo sapiens), P00519 [M351T]"
readout_type = "inhibition"
result = "1.56%"


Note: attention shifts to another entry.
Lookup: What value of inhibition on Tyrosine-protein kinase ABL1 (Homo sapiens), P00519 [M351T] does CN(C)CCOc1ccc(-c2cc(-c3ccc4c(c3)CCC4=NO)c(-c3ccncc3)o2)cc1 have?
Found: 3.15%
